test method notes: MRT (0 to t) in ICR mouse at 45 mg/kg, po measured after 0.083 to 12 hrs by UPLC-MS/MS analysis
Format: ADME, organism-based
condition context: in vivo, time 0.083-12 hrs
Please respond with reported MRT last for every item in the list.
Field: numeric (h). Do not append units.

In: Need MRT last, item C[C@H]1CCC/C=C/[C@@H]2C[C@H](O)C[C@H]2[C@H](O)/C=C/C(=O)O1
Out: 1.4

In: Try C[C@H]1CCC/C=C/[C@@H]2C[C@H](OC(=O)OCc3cccnc3)C[C@H]2[C@H](O)/C=C/C(=O)O1 next.
Out: 2.92

meta.source: ChEMBL document CHEMBL5113532
